// data source = patent US20120172295A1

target-under-test: glucagon receptor (UniProt P47871 26-477, limits assumed)
Sequence (P47871 26-477 limits assumed): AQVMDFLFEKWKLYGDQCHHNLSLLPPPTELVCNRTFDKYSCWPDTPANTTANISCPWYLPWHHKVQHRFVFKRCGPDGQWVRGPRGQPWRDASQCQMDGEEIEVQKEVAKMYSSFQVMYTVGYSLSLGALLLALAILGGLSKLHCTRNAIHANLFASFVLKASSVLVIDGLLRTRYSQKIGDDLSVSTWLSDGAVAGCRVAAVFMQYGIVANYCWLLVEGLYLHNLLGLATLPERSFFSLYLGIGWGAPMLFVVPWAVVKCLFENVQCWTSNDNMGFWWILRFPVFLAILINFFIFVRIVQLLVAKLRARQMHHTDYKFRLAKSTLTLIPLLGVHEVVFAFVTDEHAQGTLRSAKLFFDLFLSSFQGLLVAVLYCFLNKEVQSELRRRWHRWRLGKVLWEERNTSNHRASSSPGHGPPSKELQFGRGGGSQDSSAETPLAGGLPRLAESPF
assay-overview: cell-based or functional assay
Starred links: 1 amine or outer side, 2 acyl side, 3 side chain; linkers in the order of their positions; H or OH if unused. Non-standard residues stand in square brackets, D forms with d. No end group written: not given here. Dab(Ac) = acetyldiaminobutanoic acid, CC(=O)NCC[C@H](N[*:1])C(=O)[*:2]; C(Acm) = acetamidomethyl-cysteine, CC(=O)NCSC[C@H](N[*:1])C(=O)[*:2]; Orn(Ac) = acetylornithine, CC(=O)NCCC[C@H](N[*:1])C(=O)[*:2]; Dap(CONH2) = NC(=O)NC[C@H](N)C(=O)O; Met(O) = CS(=O)CC[C@H](N)C(=O)O; Nle = CCCC[C@H](N)C(=O)O; Dab = NCC[C@H](N)C(=O)O; Aib = CC(C)(N)C(=O)O
readout-type: log10 EC50 (log10 of the value in nM)
On a log10 scale: recorded EC50, unit nM.

# input Data request, read-out log10 EC50, for HS[Dap(CONH2)]GTFTSDYSKYLDTRRAAEFVAWL[Nle]DE [Peptide J backbone, Dap(urea) at position 3 (SEQ ID NO: 596)]
# output -0.32

# input For the binder HS[Dab(Ac)]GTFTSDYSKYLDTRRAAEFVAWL[Nle]DE [Peptide J backbone, Dab(Ac) at position 3 (SEQ ID NO: 595)] , what log10 EC50 is on record?
# output -0.51

# input State the recorded log10 EC50 for this entry: HS[Dab](Ac)GTFTSDYSKYLD[Aib]RRAADFVAWLMDE [Peptide K backbone, Dab(Ac) at position 3 (SEQ ID NO: 601)]
# output -1.15

# input Can you share its log10 EC50? I mean this binder: HS[C(Acm)]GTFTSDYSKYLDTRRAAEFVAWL[Nle]DE [Peptide J backbone, C(Acm) at position 3 (SEQ ID NO: 594)]
# output -0.74

# input Quick one: log10 EC50 for HS[Orn(Ac)]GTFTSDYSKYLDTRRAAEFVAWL[Nle]DE [Peptide J backbone, Orn(Ac) at position 3 (SEQ ID NO: 599)] ?
# output -0.04

Further cases:
# input Consider the binder shown here: HS[Met(O)]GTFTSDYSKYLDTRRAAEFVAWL[Nle]DE [Peptide J backbone, M(O) at position 3 (SEQ ID NO: 598)] What is its recorded log10 EC50?
# output -0.04
